All figures here come from PubChem BioAssay AID1159580.

test: chemical genetic growth profiling, strain panel (AID 1159580);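 note: tested at 20 µM; growth read once vehicle control cultures reached saturation at 30 °C; 1 = growth at the plate median or of vehicle wells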; conditions: S. cerevisiae deletion strains, growth OD, locus YHR094C, strain hxt1
Screen size: about 5,500 compounds; about 2,000 (36%) were called active. Not shown: some 18% with an inconclusive outcome. Cut-off read from the data, not from the text of the source: active = normalized growth mostly below about 0.91 (no sharp cut-off); inconclusive = no clear call, values can overlap the other calls; inactive = mostly above about 0.92. Some of the results follow.
Thanks in advance; please answer with one of these: active, inactive

Prompt line: Per the records of this test, what outcome belongs to CCC(Cc1c(I)cc(I)c(N)c1I)C(=O)O (stereo not drawn) ?
Response line: inactive

Prompt line: How about this compound: `CC(=O)Nc1cc([As](=O)(O)O)ccc1O`
Response line: inactive

Prompt line: // query: O=C1O[C@H](C(O)CO)C(O)=C1O (stereo partly drawn)
Response line: inactive

Prompt line: Now try `CC(=O)Oc1ccc(Cl)c2cccnc12` .
Response line: active

Prompt line: Then `O=[N+]([O-])c1ccc(O)c([N+](=O)[O-])c1` ?
Response line: active

Prompt line: And what about the compound `C/C=C/c1ccc2c(c1)OCO2` ?
Response line: inactive

Prompt line: // same read-out, input: `Nc1ncn([C@@H]2O[C@H](CO)[C@@H](O)[C@H]2O)c(=O)n1`
Response line: inactive

Prompt line: // repeat for `N[C@@H](Cc1ccc(O)c(O)c1)C(=O)O` and report
Response line: inactive

Prompt line: Same lookup for `C=C(C)[C@H]1CC=C(C(=O)O)CC1` , please.
Response line: inactive

Prompt line: // repeat for `O=[N+]([O-])c1cc([As](=O)(O)O)ccc1O` and report
Response line: active

Prompt line: Another compound to check: CC(C)NCC(O)c1ccc(O)c(O)c1 (stereo not drawn)
Response line: inactive

Prompt line: Further, for CC(Cc1ccc(O)c(O)c1)C(C)Cc1ccc(O)c(O)c1 (stereo not drawn) ?
Response line: inactive

Prompt line: Please answer likewise for C=CC(C)(O)CC/C=C(\C)CCC=C(C)C (stereo not drawn)
Response line: inactive

* * *

experiment: chemical genetic growth profiling, strain panel (AID 1159580);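 note: tested at 20 µM; growth read once vehicle control cultures reached saturation at 30 °C; 1 = growth at the plate median or of vehicle wells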; settings: S. cerevisiae deletion strains, growth OD, locus YFR010W, strain ubp6
Out of some 5,500 compounds screened, about 2,000 (36%) were called active. Not shown: some 18% with an inconclusive outcome. No stated cut-off is given here; in the data, active means normalized growth mostly below about 0.91 (no sharp cut-off); inconclusive means no clear call, values can overlap the other calls; inactive means mostly above about 0.92. Some of the results follow.
Your reply should match one of these outcome classes. active, inactive

Prompt line: // outcome(item) with item = `C[n+]1cccc(C(=O)[O-])c1`
Response line: inactive

Prompt line: Now consider CC(C)(C)NCC(O)c1ccccc1Cl (stereo not given) .
Response line: inactive

Prompt line: Now give it for `C/C=C/c1ccc2c(c1)OCO2` too.
Response line: inactive

Prompt line: Lookup `Nc1ccc(S(=O)(=O)Nc2ccc(Cl)nn2)cc1`
Response line: inactive

Prompt line: For O=C1C=CC2=C3c4cc(O)c(O)cc4CC3(O)COC2=C1O (stereo not given) then?
Response line: inactive

Prompt line: Cool, now CC(C)=CCC[C@](C)(O)C1CC=C(C)CC1 (stereo not given in full)
Response line: inactive

Prompt line: Proceed to Cc1c(O)c(O)cc2c1CC=C1[C@@]2(C)CC[C@@]2(C)C3C[C@](C)(C(=O)O)CC[C@]3(C)CC[C@]12C (stereo not given in full)
Response line: active

Prompt line: # iterate: `COC(C)(C)CCC[C@H](C)C/C=C/C(C)=C/C(=O)OC(C)C`
Response line: inactive

Prompt line: # iterate: O=C1CCCC2C3CC(CN12)[C@@H]1CCCCN1C3 (stereo not given in full)
Response line: inactive

Prompt line: What do we get for CC(C)NCC(O)c1ccc2ccccc2c1 (stereo not given) ?
Response line: inactive

Prompt line: Field entry: `C1CCN2C[C@@H]3C[C@H](CN4CCCC[C@@H]34)[C@H]2C1`
Response line: inactive

Prompt line: Now consider `Cc1ccc(/C(=C\CN2CCCC2)c2ccccn2)cc1` .
Response line: inactive

Prompt line: Queued: `Cc1ccc2c(Cl)cc(Cl)c(O)c2n1`
Response line: inactive

Prompt line: Repeat for the following compound: `Oc1c(I)cc(Cl)c2cccnc12`
Response line: active

Prompt line: Entry to check: C=CC(C1=CC(=O)C(OC)=CC1=O)c1ccc(O)cc1 (stereo not given)
Response line: inactive

Prompt line: Would you kindly repeat that for CCCC(C)C1(CC)C(=O)NC(=O)NC1=O (stereo not given) ?
Response line: inactive

Prompt line: Now consider C=CC(C1=CC(=O)C(OC)=CC1=O)c1ccc(OC)cc1 (stereo not given) .
Response line: active

Prompt line: How about C=CC(C1=CC(=O)C(OC)=CC1=O)c1ccccc1 (stereo not given) ?
Response line: inactive

Prompt line: Param item: `OC[C@@H](O)[C@@H](O[C@@H]1O[C@H](CO)[C@@H](O)[C@H](O)[C@H]1O)[C@H](O)[C@@H](O)CO`
Response line: inactive

Prompt line: Can you handle C=CCC1(C(C)CCC)C(=O)N=C(S)NC1=O (stereo not given) next?
Response line: inactive

Prompt line: Similarly, `Oc1ccc(Cl)c2cccnc12` ?
Response line: active

Prompt line: Same lookup for `CC(C)=CCC/C(C)=C/CC/C(C)=C/CC/C(C)=C/CC/C(C)=C/CC/C(C)=C/CC/C(C)=C/CC/C(C)=C/CC/C(C)=C/CO` , please.
Response line: inactive

Prompt line: How about `C=C(C)[C@H]1CC=C(C(=O)O)CC1` ?
Response line: inactive

Prompt line: Let us now turn to `Oc1c(Br)cc(Br)c2cccnc12`
Response line: active

Prompt line: Ok, now `O=C(O)CF`
Response line: inactive

* * *

assay: chemical genetic growth profiling, strain panel (AID 1159580);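 note: tested at 20 µM; growth read once vehicle control cultures reached saturation at 30 °C; 1 = growth at the plate median or of vehicle wells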; details: S. cerevisiae deletion strains, growth OD, locus YJL095W, strain BCK1, stronger effect = lower value
Hit rate of the full screen: of about 5,500 compounds, about 2,000 (36%) were called active. Roughly 18% stayed inconclusive and do not appear here. Some of the results follow.
property-name: normalized growth
Please reply with the value in numeric form only.

Prompt line: Using the record for CCN(CC)CCNC(C(=O)OCCC(C)C)c1ccccc1 (stereo not given) , report its normalized growth.
Response line: 0.979

Prompt line: One more molecule: COC(=O)[C@]1(C)CC[C@]2(C)CC[C@]3(C)C4=CCc5c(cc(O)c(O)c5C)[C@]4(C)CC[C@@]3(C)C2C1 (stereo not given in full)
Response line: 0.958

Prompt line: What do we get for CC(=O)OCC1(C)CCC2(C)CCC3(C)C4=CCc5c(cc(OC(C)=O)c(OC(C)=O)c5C)C4(C)CCC3(C)C2C1 (stereo not given) ?
Response line: 1.04

Prompt line: Now the same for `OC[C@H]1O[C@H](OC[C@H]2O[C@@H](O)[C@H](O)[C@@H](O)[C@@H]2O)[C@H](O)[C@@H](O)[C@H]1O`
Response line: 1.05

Prompt line: Would you mind doing `CCCc1occc(=O)c1/C=C/O` as well?
Response line: 0.909

Prompt line: Okay, and `O=C(NC(=O)c1c(F)cccc1F)Nc1ccc(Cl)cc1` ?
Response line: 1.03

Prompt line: Try this molecule next: `O=C(CCNNC(=O)c1ccncc1)NCc1ccccc1`
Response line: 0.972

Prompt line: Try `O=C(NCc1ccncc1)c1ccc(-n2cccn2)cc1` next.
Response line: 0.981

Prompt line: Please answer likewise for `Cn1c(CSCCOc2ccccc2)nnc1SCc1ccc(Cl)cc1Cl`
Response line: 0.911

Prompt line: Same lookup for `O=C(Nc1ccc(N2CCOCC2)cc1)c1ccc(-n2cccn2)cc1` , please.
Response line: 1

* * *

test: chemical genetic growth profiling, strain panel (AID 1159580);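 note: tested at 20 µM; growth read once vehicle control cultures reached saturation at 30 °C; 1 = growth at the plate median or of vehicle wells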; settings: S. cerevisiae deletion strains, growth OD, locus YEL037C, strain rad23
Among all 5,500 compounds or so, about 2,000 (36%) were called active. Roughly 18% stayed inconclusive and do not appear here. Cut-off read from the data, not from the text of the source: active = normalized growth mostly below about 0.91 (no sharp cut-off); inconclusive = no clear call, values can overlap the other calls; inactive = mostly above about 0.92. The list shows a part of the results.
// classify into active, inactive

Prompt line: Tell me the assay call for `CCOC(=O)c1oc2c(OC)c(O)cc(O)c2c(=O)c1-c1cc(OC)c(OC)c(OC)c1` please.
Response line: inactive

Prompt line: Now give it for `C=C(C)[C@H]1CC=C(C(=O)O)CC1` too.
Response line: inactive

Prompt line: For CN(C)CCOC(C)(c1ccccc1)c1ccccn1 (stereo not drawn) then?
Response line: inactive

Prompt line: Likewise for `Cc1ccsc1/C=C/C1=NCCCN1C` ?
Response line: inactive

Prompt line: Moving on to CC1(C)C(=O)C=C[C@@]2(C)C1=C(O)C(=O)[C@]1(C)C2CC[C@@]2(C)[C@H](c3ccoc3)C[C@H]3O[C@]321 (stereo partly drawn)
Response line: inactive

Prompt line: Could you do the same for `C1CCN2C[C@@H]3C[C@H](CN4CCCC[C@@H]34)[C@H]2C1` , please?
Response line: inactive

Prompt line: Same for O=C1CCCC2C3CC(CN12)[C@@H]1CCCCN1C3 (stereo partly drawn)
Response line: inactive

Prompt line: Subsequent entry: `CCN(CC)CCOc1ccc2c(c1)C(=O)c1cc(OCCN(CC)CC)ccc1-2`
Response line: inactive

Prompt line: // same read-out, input: `Cc1ccc(/C(=C\CN2CCCC2)c2ccccn2)cc1`
Response line: inactive

Prompt line: Field entry: C=CCC1(C(C)CCC)C(=O)N=C(S)NC1=O (stereo not drawn)
Response line: inactive

Prompt line: How about CC(=O)O[C@@H]1CC2C(C)(C)C=CC(=O)[C@]2(C)C2CC[C@@]3(C)[C@H](c4ccoc4)OC(=O)C4OC43[C@@]21C (stereo partly drawn) ?
Response line: inactive

Prompt line: Now consider `CC(=O)/C(=C\c1ccccc1)CC(=O)O` .
Response line: inactive

Prompt line: Also check CO[C@H]1/C=C/O[C@@]2(C)Oc3c(C)c(O)c4c(O)c(c(/C=N/N5CCN(C)CC5)c(O)c4c3C2=O)NC(=O)/C(C)=C\C=C\C(C)[C@H](O)[C@@H](C)[C@@H](O)[C@@H](C)[C@@H](OC(C)=O)[C@@H]1C (stereo partly drawn)
Response line: inactive

Prompt line: Would you kindly repeat that for `O=C(O)C1=CCNCC1` ?
Response line: inactive

Prompt line: Then this compound: `CN/C(=C\[N+](=O)[O-])NCCSCc1ccc(CN(C)C)o1`
Response line: inactive

Prompt line: // repeat for C=C(C)C1CC=C(CO)CC1 (stereo not drawn) and report
Response line: inactive

Prompt line: Repeat with `COc1cccc(/C=C/C(=O)O)c1C(C)C`
Response line: inactive

Prompt line: Next: CN1C(CC(=O)c2ccccc2)CCCC1CC(O)c1ccccc1 (stereo not drawn)
Response line: inactive

Prompt line: Entry to check: `COc1ccc(C(Cl)=C(c2ccc(OC)cc2)c2ccc(OC)cc2)cc1`
Response line: inactive

Prompt line: `CCN(CC)CCOc1ccc(/C(=C(\Cl)c2ccccc2)c2ccccc2)cc1` ?
Response line: active

Prompt line: Try `Nc1ccc(C(=O)NCC(=O)O)cc1` next.
Response line: inactive

Prompt line: Okay, and `O=C(O)c1ccccc1Nc1ccccc1` ?
Response line: active

Prompt line: // next record `CN(C)CCOc1ccc(/C(=C(/CCCl)c2ccccc2)c2ccccc2)cc1`
Response line: active

Prompt line: Entry `Cc1occc(=O)c1O` please
Response line: inactive

Prompt line: # iterate: CC1(C)C(C(Cl)Cl)C2(Cl)C(Cl)C(Cl)C1(Cl)C2(Cl)Cl (stereo not drawn)
Response line: inactive

Prompt line: Also `O=C(O)/C=C/C=C/c1ccccc1` , if possible.
Response line: active

Prompt line: Now the compound CC(=O)O[C@H]1C[C@@H](OC(C)=O)C(C)(C)C2C[C@@H](OC(C)=O)[C@@]3(C)C4=CC(=O)O[C@@H](c5ccoc5)[C@]4(C)CCC3[C@]21C (stereo partly drawn)
Response line: inactive

Prompt line: Do the same for `C=C(CC)C(=O)c1ccc(OCC(=O)O)c(Cl)c1Cl` please
Response line: inactive
